# Target: CB2 receptor (Homo sapiens, UniProt P34972)
# Sequence (P34972 whole entry): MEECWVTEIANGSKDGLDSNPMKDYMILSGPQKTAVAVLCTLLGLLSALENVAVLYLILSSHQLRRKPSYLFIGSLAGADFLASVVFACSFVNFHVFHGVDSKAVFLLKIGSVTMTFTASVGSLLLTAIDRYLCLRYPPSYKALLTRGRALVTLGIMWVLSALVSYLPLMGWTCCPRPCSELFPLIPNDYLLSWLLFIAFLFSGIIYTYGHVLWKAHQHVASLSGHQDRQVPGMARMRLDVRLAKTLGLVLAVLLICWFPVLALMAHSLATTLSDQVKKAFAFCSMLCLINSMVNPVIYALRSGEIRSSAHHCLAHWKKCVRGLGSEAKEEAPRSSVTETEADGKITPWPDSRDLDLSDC
# Measurement Description: CB2 competitive radioligand binding assay ([3H] WIN-55,212-2)
# Parameters: expressed in transfected cells; host or cells: CHO-K1 cells
Let's look at some molecules and their measured Ki.

In [3]: df
Out[3]:
                                smiles_repr  result
0  CCCCCCC(C)(C)c1cc(O)c2c(c1)OC(C)(C)[C@@H]1CC=C(C(=O)NN3CCCCC3)C[C@@H]21  9.2 nM

What value of Ki has been recorded for this entry: CCCCCCC(C)(C)c1cc(O)c2c(c1)OC(C)(C)[C@@H]1CC=C(C(=O)NC3CC3)C[C@@H]21 3.9 nM

Entry to check: CCCCCCC(C)(C)c1cc(O)c2c(c1)OC(C)(C)[C@@H]1CC=C(C(=O)NC3(C(F)(F)F)CCC3)C[C@@H]21 1.3 nM
